experimental-system: δ-opioid receptor (DOR), Human-ORPD1 (human, UniProt P41143 1-372)
Sequence (P41143 whole entry, stated change not applied): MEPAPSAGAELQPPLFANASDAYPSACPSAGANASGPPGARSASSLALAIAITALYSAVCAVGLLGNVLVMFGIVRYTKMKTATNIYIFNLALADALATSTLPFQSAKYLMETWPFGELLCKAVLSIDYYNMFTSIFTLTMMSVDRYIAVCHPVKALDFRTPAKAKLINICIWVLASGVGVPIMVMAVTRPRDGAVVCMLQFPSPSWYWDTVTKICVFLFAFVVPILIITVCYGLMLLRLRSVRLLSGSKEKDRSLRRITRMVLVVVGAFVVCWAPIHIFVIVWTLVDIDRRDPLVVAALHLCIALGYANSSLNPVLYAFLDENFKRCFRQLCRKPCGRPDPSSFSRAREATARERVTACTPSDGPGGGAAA
protocol-summary: cell-based or functional assay
Square brackets hold non-standard residues; d marks the D form. Phe(2,6-Me2,4-CONH2) = Cc1cc(C(N)=O)cc(C)c1C[C@H](N)C(=O)O; Phe(3,4-Cl2) = N[C@@H](Cc1ccc(Cl)c(Cl)c1)C(=O)O; Dip = N[C@H](C(=O)O)C(c1ccccc1)c1ccccc1; Dmt = Cc1cc(O)cc(C)c1C[C@H](N)C(=O)O; Tic = O=C(O)[C@@H]1Cc2ccccc2CN1; dTic = O=C(O)[C@H]1Cc2ccccc2CN1; β3hF = N[C@H](CC(=O)O)Cc1ccccc1; βAla = NCCC(=O)O; Sar = CNCC(=O)O
readout-kind: DOR EC50

INPUT: Give the reported value of DOR EC50 for this record: H-[Phe(2,6-Me2,4-CONH2)][dA]G[β3hF]G-NH2 (SMILES Cc1cc(C(N)=O)cc(C)c1C[C@H](N)C(=O)N[C@H](C)C(=O)NCC(=O)N[C@H](CC(=O)NCC(N)=O)Cc1ccccc1) [H-Phe(DMC)-a-G-bhF-Gly-NH2]
OUTPUT: ≤ 10 nM

INPUT: Give the reported value of DOR EC50 for this record: H-[Phe(2,6-Me2,4-CONH2)][Tic]G[β3hF][Sar]-NH2 (SMILES Cc1cc(C(N)=O)cc(C)c1C[C@H](N)C(=O)N1Cc2ccccc2C[C@H]1C(=O)NCC(=O)N[C@H](CC(=O)N(C)CC(N)=O)Cc1ccccc1) [H-Phe(DMC)-Tic-G-bhF-Sar-NH2]
OUTPUT: ≤ 200 nM

INPUT: Give the reported value of DOR EC50 for this record: H-[Dmt][dA][βAla][β3hF][Sar]-NH2 [H-DMT-a-bAla-bhF-Sar-NH2]
OUTPUT: ≤ 200 nM

INPUT: Give the reported value of DOR EC50 for this record: H-[Dmt][dR]G[Dip]-NH2 (SMILES Cc1cc(O)cc(C)c1C[C@H](N)C(=O)N[C@H](CCCNC(=N)N)C(=O)NCC(=O)N[C@H](C(N)=O)C(c1ccccc1)c1ccccc1) [H-DMT-r-G-DPA-NH2]
OUTPUT: > 200 nM

INPUT: Give the reported value of DOR EC50 for this record: H-[Dmt][dA]L[β3hF][Sar]-NH2 (SMILES Cc1cc(O)cc(C)c1C[C@H](N)C(=O)N[C@H](C)C(=O)N[C@@H](CC(C)C)C(=O)N[C@H](CC(=O)N(C)CC(N)=O)Cc1ccccc1) [H-DMT-a-Leu-bhF-Sar-NH2]
OUTPUT: ≤ 50 nM

INPUT: Give the reported value of DOR EC50 for this record: H-[Dmt][dY]G[β3hF][Sar]-NH2 (SMILES Cc1cc(O)cc(C)c1C[C@H](N)C(=O)N[C@H](Cc1ccc(O)cc1)C(=O)NCC(=O)N[C@H](CC(=O)N(C)CC(N)=O)Cc1ccccc1) [H-DMT-(D)Tyr-G-bhF-Sar-NH2]
OUTPUT: ≤ 1 nM

INPUT: Give the reported value of DOR EC50 for this record: H-[Dmt][dR][Phe(3,4-Cl2)][Sar]-NH2 (SMILES Cc1cc(O)cc(C)c1C[C@H](N)C(=O)N[C@H](CCCNC(=N)N)C(=O)N[C@@H](Cc1ccc(Cl)c(Cl)c1)C(=O)N(C)CC(N)=O) [H-DMT-r-Phe(3,4-diCl)-Sar-NH2]
OUTPUT: ≤ 50 nM

INPUT: Give the reported value of DOR EC50 for this record: H-[Dmt][dTic]F[Sar]-NH2 (SMILES Cc1cc(O)cc(C)c1C[C@H](N)C(=O)N1Cc2ccccc2C[C@@H]1C(=O)N[C@@H](Cc1ccccc1)C(=O)N(C)CC(N)=O) [H-DMT-dTic-F-Sar-NH2]
OUTPUT: ≤ 10 nM
